Source: PubChem BioAssay (NCI)

- System: COLO 205 colon
- EXPERIMENT_SUMMARY: NCI tumour cell line growth inhibition, 48 h
READOUT_NAME: log10(TGI) (log10 of the value in µM)
Hey, these are logged values: log10 of TGI, µM being the unit before logging.

1) O=C1C(=C(C(=O)c2ccccc2)C(=O)c2ccccc2)OC(c2ccccc2)=C1C(=O)c1ccccc1 = 1.41
2) CN(C)CCCNc1ccc2nnn3c4ccc(OC(=O)c5ccc([N+](=O)[O-])cc5)cc4c(=O)c1c23 = 1.26
3) CCCCCCCSCC1C(=O)C23C(O)C1CCC2C12COC3(O)C(O)C1C(C)(C)CCC2O (centres undefined) = 1.18
4) O=C(N/C(=C\c1ccc(Oc2ccc(Cl)c(Cl)c2)cc1)c1nc2ccccc2[nH]1)c1ccccc1 = 1.76
5) CCCCCCCCNC(=S)/N=C/c1c(O)c2ccccc2oc1=O = 1.51
6) O=C(NCCN1CCCC1)c1cn2c(ccc3sc4ccccc4c(=O)c32)n1 = 1.43

Task item: Recorded log10(TGI) of O=C(OC(/C=C/c1ccccc1)P1(=O)N(Cc2ccccc2)[C@@H]2CCCC[C@H]2N1Cc1ccccc1)c1ccccc1 (some centres undefined) , please.
Reply: 0.68

Task item: Can you look up the measured log10(TGI) of Clc1nc(Cl)c(Cc2ccccc2)c(Cl)n1 for me?
Reply: 1.35
